The values you see were collected from paper PMC12169669.

Assay: Cytotoxicity assay (sulforhodamine B, SRB)
Type: cell-based
Settings: mouse, mouse embryonic fibroblasts (MEFs; STO), under all three oxygen conditions (21, 4, 1%)
Experimental: For cytotoxicity experiments, mouse embryonic fibroblasts (MEFs; STO, 86032003, Sigma-Aldrich) were cultured in DMEM (41966-029, Thermo Fisher Scientific) + 5% FBS and were seeded at 10,000 cells per well in a 96-well plate and allowed to adhere for 8 h under atmospheric conditions. […] The stain was solubilized with 10 mM unbuffered TRIS base, and absorbance was measured at 540 nm (Infinite M200 Pro, Tecan, Austria). […] IC₅₀ values were determined from dose-response curves (see Supplementary Table S3). […]
property-label: IC50 at 24 h

Exercise: Report IC50 at 24 h for CCCCCCCCC(CCCCCCCCC(=O)O)[N+](=O)[O-] (stereo not shown) please.
Key: ≥ 100 µM

###

Tested on: Hmox1
Assay: Relative gene expression of Hmox1 in BMCs (qRT-PCR)
Type: cell-based, mouse
Conditions: 2 μM, 4 h, 4% and 1% oxygen
property-label: Hmox1 relative expression

CCCCCCCC/C=C(\CCCCCCCC(=O)O)[N+](=O)[O-] [9-NO2OA, (9E)-9-Nitro-oleic Acid]: significant upregulation
CCCCCCCC/C(=C\CCCCCCCC(=O)O)[N+](=O)[O-] [10-NO2OA, (9E)-10-Nitro-oleic Acid]: significant upregulation

###

System: Gclm
Assay: GCLM protein level in BMCs (Western blot)
Format: cell-based, mouse
Details: 2 μM, 7 h, 21% oxygen
property-label: GCLM protein level, fold change relative to control

CCCCCCCC/C(=C\CCCCCCCC(=O)O)[N+](=O)[O-]: nearly the same increase
CCCCCCCC/C=C(\CCCCCCCC(=O)O)[N+](=O)[O-]: nearly the same increase

###

Experiment: Cytotoxicity assay (sulforhodamine B, SRB)
Assay type: cell-based
Details: mouse, mouse embryonic fibroblasts (MEFs; STO), 1% O2
property-label: IC50 at 24 h (µM)
Supply the numeric figure in µM, leaving out any unit text.

For orientation, consider the following solved cases.
CCCCCCCC/C=C(\CCCCCCCC(=O)O)[N+](=O)[O-] [9-NO2OA, (9E)-9-Nitro-oleic Acid]: 6.93
CCCCC/C=C\C/C(=C\CCCCCCCC(=O)O)[N+](=O)[O-] [10-NO2LA, (9E,12Z)-10-Nitro Linoleic Acid]: 13.8
CCCCCC/C=C/C=C(\CCCCCCCC(=O)O)[N+](=O)[O-] [9-NO2cLA]: 14.3

Kindly consider the entry below.
Exercise: Report IC50 at 24 h for CCCCCCCC/C(=C\CCCCCCCC(=O)O)[N+](=O)[O-] [10-NO2OA, (9E)-10-Nitro-oleic Acid] please.
Key: 8.19

###

Reported values of IC50 at 24 h for individual entries
Test: Cytotoxicity assay (sulforhodamine B, SRB)
Assay type: cell-based
Conditions: mouse, mouse embryonic fibroblasts (MEFs; STO), 4% O2

For orientation, consider the following solved cases.
CCCCC/C=C\C/C(=C\CCCCCCCC(=O)O)[N+](=O)[O-] [10-NO2LA, (9E,12Z)-10-Nitro Linoleic Acid]: 11.2 µM
CCCCCC/C=C/C=C(\CCCCCCCC(=O)O)[N+](=O)[O-] [9-NO2cLA]: 17.2 µM
CCCCCCCCC(CCCCCCCCC(=O)O)[N+](=O)[O-] (centres unmarked) [10-NO2SA, 10-Nitro Stearic acid]: > 100 µM
CCCCCCCC/C=C(\CCCCCCCC(=O)O)[N+](=O)[O-] [9-NO2OA, (9E)-9-Nitro-oleic Acid]: 7.75 µM

Kindly consider the entry below.
Exercise: Report IC50 at 24 h for CCCCCCCC/C(=C\CCCCCCCC(=O)O)[N+](=O)[O-] [10-NO2OA, (9E)-10-Nitro-oleic Acid] please.
Key: 5.74 µM

###

Tested on: Gclm
Assay: Relative gene expression of Gclm in BMCs (qRT-PCR)
Type: cell-based, mouse
Conditions: 2 μM, 4 h, 4% and 1% oxygen
property-label: Gclm relative expression

CCCCCCCC/C(=C\CCCCCCCC(=O)O)[N+](=O)[O-]: significant upregulation
CCCCCCCC/C=C(\CCCCCCCC(=O)O)[N+](=O)[O-]: significant upregulation
